Test system: MDA-MB-231 breast
Test: NCI tumour cell line growth inhibition, 48 h
reported.metric: TGI

# annotated cases, reported TGI shown
compound=[Cl][Cd][Cl] reported_metric=TGI data_value="53.9 µM"
compound=CN(C)CCN1C(=O)c2cccc3cccc(c23)C1=O reported_metric=TGI data_value="> 25 µM"
compound=O=C(Nc1ccc(I)cc1F)c1cc(Cl)ccc1O reported_metric=TGI data_value="4.56 µM"
compound="C=C(C)C12CC3CC/C(=N/O)C(C1)C3(N1CCOCC1)C/C2=N/O (stereo not given)" reported_metric=TGI data_value="> 100 µM"

# ---- query compound ----
Record CCCCCC(O)C1C(=O)OC(C)C(O)/C=C/C=C/C=C/C=C/C=C(\C)C(O)C(O)C(O)CC(O)CC(O)CC(O)CC(O)CC1O (stereo not given) has MDA-MB-231 breast TGI equal to > 100 µM
